# max response per record follows
# Tested on: CRL-7250
# assay: Cytotoxic Profiling of Annotated Libraries Using Quantitative High-Throughput Screening (AID 1296008); further: on the % scale 0 is the no-effect control and ±100 the full control effect; nearly all actives have a fitted effect of over 60% in size
# conditionsUsed: Five cell lines viability, CellTiter-Glo ATP luminescence, 48-72 h; active compounds read low
Inconclusive results are not listed.
Give the value, in units of %, as a plain number.

• COc1cc(/C=C/C(=O)OC(C)(C)C(OC2OC(CO)C(O)C(O)C2O)C(=O)OCc2ccc(OC3OC(CO)C(O)C(O)C3O)cc2)ccc1O (stereo not drawn) = -9.61

Pending compound:
Can you look up the measured max response of CCC(CCO[C@@H]1O[C@H](CO[C@H]2OC[C@](O)(CO)[C@H]2O)[C@@H](O)[C@H](O)[C@H]1O)C(C)(C)O (stereo partly drawn) for me? -2.81

###

# Test system: Tov-21-G
# assay: Primary qHTS to identify gynecologic anti-cancer compounds using libraries of approved drugs and bioactive compounds (AID 1345084); further: on the % scale 0 is the no-effect control and ±100 the full control effect; nearly all actives have a fitted effect of over 55% in size
# conditionsUsed: Gynecologic cancer cell panel viability, ATPlite luminescence, 48 h; series mostly up to 57.5 µM
Inconclusive results are not listed. Activity calls are given as the source filed them. Calls come from the whole dose curve; as a rule, active = well fitted cell-killing curve with a large enough effect; inconclusive = small, poorly fitted or top-dose-only effect, or effect the other way; inactive = flat fitted curve, though single readings scatter.
observationType: activity change, negative = cytotoxicity

Please review the entries below; each comes with its answer.
- CC(c1c[nH]c2ccccc12)C(O)C(=O)O (stereo unspecified): inactive
- O=C(O)CCc1cccc(O[C@@H]2O[C@H](CO)[C@@H](O)[C@H](O)[C@H]2O)c1O: inactive
- C[C@@H]1O[C@@H](O[C@H]2[C@H](O)[C@@H](C(=O)O)O[C@@H](O[C@H]3CC[C@@]4(C)C(CC[C@]5(C)C4CC=C4C6CC(C)(C)CC[C@]6(C(=O)O)CC[C@]45C)C3(C)C)[C@@H]2O[C@@H]2O[C@H](CO)[C@@H](O)[C@H](O)[C@H]2O)[C@H](O)[C@H](O)[C@H]1O (stereo partly specified): 0.088% [at 11.6 µM] (inactive)
- CC1(C)C[C@H]2C3=CCC4[C@@]5(C)CC[C@H](O[C@H]6O[C@H](C(=O)O)[C@@H](O)[C@H](O)[C@H]6O[C@H]6O[C@H](CO)[C@@H](O)[C@H](O)[C@H]6O[C@@H]6O[C@H](CO)[C@@H](O)[C@H](O)[C@H]6O)[C@](C)(CO)C5CC[C@@]4(C)[C@]3(C)CC[C@@]2(C)[C@H](O[C@@H]2OC[C@H](O)[C@H](OC3O[C@H](CO)[C@@H](O)[C@H](O)[C@H]3O)[C@H]2O)[C@@H]1O (stereo partly specified): 3.65% [at 6.55 µM] (inactive)

Please tell me: activity change, negative = cytotoxicity of C=CC1(C)CC(O)C2(CCC3C(C)(C(=O)O)CCCC3(C)C2=O)C1 (stereo unspecified) , system Tov-21-G? inactive

Please tell me: activity change, negative = cytotoxicity of C[C@@H]1O[C@@H](O[C@H]2[C@H](OC(=O)[C@]34CCC(C)(C)C[C@H]3C3=CCC5[C@@]6(C)C[C@H](O)[C@H](O[C@@H]7O[C@H](CO)[C@@H](O[C@@H]8O[C@H](CO)[C@@H](O)[C@H](O)[C@H]8O)[C@H](O)[C@H]7O)[C@@](C)(CO)C6[C@H](O)C[C@@]5(C)[C@]3(C)C[C@H]4O)OC[C@H](O)[C@@H]2O)[C@H](O)[C@H](O)[C@H]1O[C@@H]1OC[C@@H](O)[C@H](O[C@@H]2OC[C@](O)(CO)[C@H]2O)[C@H]1O (stereo partly specified) , system Tov-21-G? 2.26% [at 6.55 µM] (inactive)

Please tell me: activity change, negative = cytotoxicity of COC(=O)[C@@H]1C2CC3c4[nH]c5ccccc5c4CCN3CC2CC[C@@H]1O (stereo partly specified) , system Tov-21-G? inactive

Please tell me: activity change, negative = cytotoxicity of COC1CC(=O)C23C(=O)NC(CC(C)C)C2C(C)C(C)=CC3/C=C(\C)CCC1O (stereo unspecified) , system Tov-21-G? inactive

Please tell me: activity change, negative = cytotoxicity of "C[C@@H](Nc1cc(NS(=O)(=O)N2CCC2)nc(SCc2cccc(F)c2F)n1)[C@@H](O)CO" , system Tov-21-G? inactive

Please tell me: activity change, negative = cytotoxicity of "C[C@@H]1CC[C@]2(C)C3(C)CC[C@@]2(OC3=O)[C@@]12C[C@H](c1ccoc1)OC2=O" , system Tov-21-G? inactive

Please tell me: activity change, negative = cytotoxicity of CC1=CC(=O)C2C(C)(C)CCCC2(C)C12CCC1(COC(=O)C1)O2 (stereo unspecified) , system Tov-21-G? inactive
